// data source = ChEMBL document CHEMBL1201862

Give measured GI50 for each item. Keep answers brief.
Tested on: HT-29
Test: NCI tumour cell line growth inhibition, 48 h
The source made the active and inactive calls. No stated cut-off is given here; in the data, active = GI50 up to about 1.1 µM and inactive = higher.

# get_value(readout= GI50, system= HT-29) for CO/N=C1/c2sccc2[C@H](NC(=O)C(Cc2ccccc2)NC(=O)OC(C)(C)C)[C@@H]1O (stereo not given in full)
> 100 µM (inactive)

Form field: GI50 recorded for CCOC(=O)CCC(NC(=O)c1ccc(OCc2nc3cc(C(F)(F)F)ccc3nc2-c2ccccc2)cc1)C(=O)OCC (stereo not given) with HT-29 (enter value)
> 100 µM (inactive)

Request: GI50, test system HT-29, entry O=C(O)c1nc2cc(C(F)(F)F)ccc2nc1Nc1ccc(F)cc1
23 µM (inactive)

State its GI50 on HT-29: COc1ccc(/C=C/C(=O)c2cc(C(C)(C)C)c(O)c(C(C)(C)C)c2)cc1OC
4.18 µM (inactive)

Recall the recorded GI50 for CNCc1cc(OC)ccc1-c1ccc(OC)c(OC)c1OC with HT-29 and state it.
82.6 µM (inactive)

// lookup GI50 | system=HT-29 | key= COc1ccc2[nH]c3c(c2c1)CCN(C)CC3
> 100 µM (inactive)

// lookup GI50 | system=HT-29 | key= COC(=O)C(=O)C(C(=O)C(=O)Nc1ccccc1C(N)=O)c1nc2ccc(Cl)cc2nc1O (stereo not given)
> 100 µM (inactive)

Short answer please: GI50, HT-29, entry Cc1ccc(-n2c3nc(=O)n(C)c(=O)c-3nc3ccccc32)cc1
3.54 µM (inactive)

Field: GI50 (HT-29). Entry: Cc1nc(-n2nc(-c3ccccc3)cc2-c2ccccc2)sc1C(=O)CC(=O)C(=O)Nc1ccc(O)cc1
> 100 µM (inactive)

Requested read-out GI50, target or system HT-29, entry COCc1c(CO)cnc(C)c1OC1OC(CO)C(O)C(O)C1O (stereo not given)
> 100 µM (inactive)
